Test system: Yap1 mRNA
Experiment: Antisense inhibition of human Yap1 in SNU-449 cells by modified oligonucleotides, single dose (Example 5, RTS36584)
Assay type: cell-based
Details: Table 42 (separate experiment); SNU-449 cells, 10,000 cells per well, free uptake, 2,000 nM modified oligonucleotide, approximately 48 hours; RTS36584; normalized to RIBOGREEN; Yap1 mRNA relative to untreated control cells
Strand notation (5' to 3'): a small letter for the sugar, then the base; units joined by * are phosphorothioate-linked, units joined directly phosphodiester-linked; [ ] holds rarer units or linkages, { } end groups; capitals alone tell only the bases. e = 2'-O-(2-methoxyethyl) (MOE); k = constrained ethyl (cEt); [5mC] = 5-methylcytosine; d = 2'-deoxy (DNA)
Grouping by measured YAP1 (% UTC) is done with the following cut points: low: < 40 % UTC; moderate: ≥ 40 % UTC and < 80 % UTC; high: ≥ 80 % UTC

{"columns": ["SUBSTANCE", "SYSTEM_TESTED", "CATEGORY_LABEL"],
 "data": [
  ["1198199 (kA*kT*dT*dG*dT*d[5mC]*dT*d[5mC]*dA*dT*dG*e[5mC]*e[5mC]*eT*kT*kA; antisense) [Compound 1198199]", "Yap1 mRNA", "low"],
  ["1095481 (antisense kT*kG*dA*dG*dG*dT*dA*dT*dA*dA*d[5mC]*dT*kG*eG*kG*e[5mC]) [Compound 1095481]", "Yap1 mRNA", "low"],
  ["715487 (antisense kA*kT*kT*dA*d[5mC]*dT*dT*d[5mC]*dA*dT*dA*dG*d[5mC]*kT*kT*kA) [Compound 715487]", "Yap1 mRNA", "low"],
  ["1198237 (AGTGCTTTGGAAGATC; chemistry not fully specified) [Compound 1198237]", "Yap1 mRNA", "moderate"],
  ["1198214 (kT*kA*dT*dA*dT*dT*dA*dG*dA*dG*dT*eA*eT*eG*kT*kG; antisense) [Compound 1198214]", "Yap1 mRNA", "high"],
  ["1198647 (kG*kG*dT*dA*dT*dA*dA*d[5mC]*dT*dG*dG*dG*k[5mC]*eA*kA*eA) [Compound 1198647]", "Yap1 mRNA", "moderate"],
  ["1198207 (kA*kG*dT*dA*dT*dG*dT*dG*dG*d[5mC]*dA*eA*eT*eA*kA*kT; antisense) [Compound 1198207]", "Yap1 mRNA", "high"],
  ["1198213 (kA*kT*dA*dT*dT*dA*dG*dA*dG*dT*dA*eT*eG*eT*kG*kG; antisense) [Compound 1198213]", "Yap1 mRNA", "low"],
  ["1198232 (kT*kT*dT*dG*dG*dA*dA*dG*dA*dT*d[5mC]*eT*eG*eA*kA*kA) [Compound 1198232]", "Yap1 mRNA", "high"],
  ["1198649 (kG*kA*dG*dG*dT*dA*dT*dA*dA*d[5mC]*dT*dG*kG*eG*k[5mC]*eA) [Compound 1198649]", "Yap1 mRNA", "low"]
]}
